# System: A-431
# assay.summary: Cytotoxicity against human A-431 cells harboring wild type EGFR assessed as reduction in cell viability incubated for 72 hrs by CCK8 assay
# Format: cell-based
# applied.conditions: A-431, 72 h
experimental.endpoint: IC50 (µM)

>>> print(df.to_string())
                                 cpd_smiles  experimental_endpoint  result_number
0  CN1CCN(c2ccc(Nc3ncc(Cl)c(Nc4ccccc4C(=O)NO)n3)cc2)CC1                   IC50          0.253
1  O=C(CN1CCOCC1)Nc1ccc(Nc2ncc(Cl)c(Nc3ccccc3C(=O)NO)n2)cc1                   IC50           1.53
2  O=C(NO)c1ccccc1Nc1nc(Nc2ccc(OCC(=O)N3CCOCC3)cc2)ncc1Cl                   IC50           0.67
3  O=C(COc1ccc(Nc2ncc(Cl)c(Nc3ccccc3C(=O)NO)n2)cc1)NO                   IC50           2.06

----------
# System: NCI-H23
# assay.summary: Antiproliferative activity against human NCI-H23 cells harboring KRAS mutant assessed as reduction in cell viability incubated for 72 hrs by CCK8 assay
# Type: functional, cell-based
# applied.conditions: NCI-H23, 72 h
Items are presented alongside their recorded log10 IC50.
experimental.endpoint: log10 IC50 (log10 of the value in nM)

>>> df
                                 cpd_smiles  test_target  experimental_endpoint  result_number
0  O=C(COc1ccc(Nc2ncc(Cl)c(Nc3ccccc3C(=O)NO)n2)cc1)NO      NCI-H23             log10 IC50           3.81
1  O=C(NO)c1ccccc1Nc1nc(Nc2ccc(OCCCN3CCOCC3)cc2)ncc1Cl      NCI-H23             log10 IC50           2.82
2  CNC(=O)c1ccccc1Nc1nc(Nc2ccc(OCCCN3CCC(C(=O)NO)CC3)cc2)ncc1Cl      NCI-H23             log10 IC50           3.32
3  O=C(NO)c1ccccc1Nc1nc(Nc2ccc(N3CCOCC3)cc2)ncc1Cl      NCI-H23             log10 IC50           2.90
4  O=C(NO)c1ccccc1Nc1nc(Nc2ccc(OCCN3CCOCC3)cc2)ncc1Cl      NCI-H23             log10 IC50           2.80
5  CN1CCN(c2ccc(Nc3ncc(Cl)c(Nc4ccccc4C(=O)NO)n3)cc2)CC1      NCI-H23             log10 IC50           2.34
